- EXPERIMENTAL TARGET: Chimeric protein #2 (hPro-mCat-mC-term-mmh) (human; mouse, UniProt Q80W65 19-694)
- ASSAY TEXT: ELISA, mAb coated, 1.2 nM antigen;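 note: antigen allowed to bind for 1 h at room temperature, then captured protein revealed with an HRP-linked polyclonal anti-myc antibody and read as optical density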
Each item that follows carries a reported OD.

Consider the reported OD for these binders:
Given item H1M498 (antibody, V domains shown, Hybridoma-derived chimeric antibody (human variable, mouse constant)) VH: EVQLVESGGGLVKPGGSLRLSCAASGFTFSSYSMDWVRQAPGKGLEWVSSISSSSSYIYYADSVKGRFTISRDTAKNSLYLQMNSLRDEDTAVYYCAREGSSRLFDYWGQGTLVTVSS VL: DIQMTQSPSTLSASVGDRVTITCRASQSISSWLAWYQQRPGKAPKLLIYKASSLEGGVPSRFSGSGSGTEFTLTISSLQPEDFATYYCQQYNSYWYTFGQGTKLEIK , the value recorded as its OD is < 0.4 od

Given item H1M495 (antibody, V domains shown, Hybridoma-derived chimeric antibody (human variable, mouse constant)) VH: EVQLVESGGGLVQPGRSLRLSCAASGFTFDDYAMHWVRQAPGKGLEWVSGINWNSGSIGYADSVKGRFTISRDNAKHSLYLQMNSLRPEDTALYYCVKEVTTGYYYGMDVWGQGTTVTVSS VL: DIQLTQSPSFLSASVGDRVTITCWASQGISSYLAWYQKKPGKAPNLLIYDASTLQSGVPSRFSGSGSGTEFTLTLSSLQPEDFATYYCQQLNIYPFTFGPGTKVDIK , the value recorded as its OD is < 0.4 od

Given item H1H320P (antibody, V domains shown, Fully human antibody cloned from B cells, made in CHO cells) VH: QVQLVQSGAEVKKPGASVKVSCKASGYTFTNYGISWVRQAPGQGLELMGWISGYNGNTNYAQELQARVTMTTDTSTSTAYMELRNLRSDDTAVYYCARDRVVVAAANYYFYSMDVWGQGTTVTVSS VL: DVVMTQSPLSLSVTLGQPASISCRSSQSLVYSDGDTYLNWFQQRPGQSPRRLIYKVSNRDSGVPDRFSGSGSGTAFTLKISGVEAEDVGVYYCMQATHWPRTFGQGTKVEIK , the value recorded as its OD is > 1 od

Consider the record given below.
Given item H1H318P (antibody, V domains shown, Fully human antibody cloned from B cells, made in CHO cells) VH: QVQLQESGPGLVKPSETLSLTCTVSGDSINTYYWSWFRQPPGKGLEWIGYIYYSGTTNYNPSLKSRVTISIDTPRNQFSLKLISVTAADTAVYYCARERITMIRGVTLYYYSYGMDVWGQGTTVTVSS VL: DIQMTQSPSFLSASVGDRVTITCWASQDISSYLAWYQQKPGIAPKLLIYAASTLQSGVPSRFGGSGSGTEFTLTISSLQPEDFATYYCQQLNSYPRTFGQGTKVEIK , the value recorded as its OD is < 0.4 od
